Reference for the values: patent US9822131B2

As shown below, each of these molecules has a reported pEC50 value.
Test system: Balb/c splenic B cells
assay_protocol: B cell activation and proliferation assay (Alamar Blue)
Format: cell-based
experimental_context: Mus musculus, read-out: B cell proliferation EC50
pEC50: −log10 of the molar value.

| chemical_smiles | pEC50 |
| --- | --- |
| Cc1ccccc1-n1c(Cn2nc(-c3ccc4nc(N)ncc4c3)c3c(N)ncnc32)cc2cccc(C)c2c1=O | > 7.00 |
| Cc1cccc2cc(Cn3nc(-c4cc(O)cc(F)c4)c4c(N)ncnc43)n(-c3ccccc3OCCN3CCOCC3)c(=O)c12 | > 7.00 |
| COc1ccccc1-n1c(Cn2nc(I)c3c(N)ncnc32)cc2cccc(C)c2c1=O | > 6.00 |
